Test: Iron clearing efficiency in non-iron overloaded, bile duct cannulated rat model
Format: in vivo
Conditions: 300 μmol/kg, s.c., 24 hour iron excretion, 2:1 ligand-iron complex
measurement.label: Efficiency (%) (iron clearing efficiency)
Entry rule: numbers only, all in %.

Consider the reported Efficiency (%) (iron clearing efficiency) for these compounds:
[
  {
    "compound": "C[C@]1(C(=O)O)CSC(c2ccc(O)cc2O)=N1 [(S)-4′-(HO)-DADFT]",
    "output.unit": "%",
    "recorded.measurement": 1.1
  },
  {
    "compound": "CC(C)OC(=O)[C@@]1(C)CSC(c2ccc(O)cc2O)=N1 [(S)-4′-(HO)-DADFT-iPrE]",
    "output.unit": "%",
    "recorded.measurement": 1.98
  },
  {
    "compound": "CCOC(=O)[C@@]1(C)CSC(c2ccc(OCCOCCOCCOC)cc2O)=N1 [(S)-4′-(HO)-DADFT-PE EE]",
    "output.unit": "%",
    "recorded.measurement": 11.4
  },
  {
    "compound": "COCCOCCOCCOc1ccc(C2=N[C@@](C)(C(=O)O)CS2)c(O)c1 [(S)-4′-(HO)-DADFT-PE]",
    "output.unit": "%",
    "recorded.measurement": 8.7
  }
]

Continue with the next compound.
QUERY: Which Efficiency (%) (iron clearing efficiency) value belongs to COCCOCCOCCOc1ccc(C2=N[C@@](C)(C(=O)OC(C)C)CS2)c(O)c1 [(S)-4′-(HO)-DADFT-PE iPrE] ?
RESULT: 25.9

----------
This listing pairs compounds with measured concentration at 8 h.
Assay: Tissue and plasma concentrations upon subcutaneous administration to rats
Type: in vivo
Details: rat, sc 300 μmol/kg, plasma, 8 h; read-out: Plasma concentration of administered compound
Hi! Could you send only the number? It should be in nM, unit omitted.

[
  {
    "compound": "C[C@]1(C(=O)O)CSC(c2ccc(O)cc2O)=N1 [(S)-4′-(HO)-DADFT]",
    "recorded.measurement": 0
  }
]

Attention now turns to another entry.
QUERY: Query: concentration at 8 h; subject: COCCOCCOCCOc1ccc(C2=N[C@@](C)(C(=O)O)CS2)c(O)c1 [(S)-4′-(HO)-DADFT-PE]
RESULT: 0

----------
Experiment: Iron clearing efficiency in non-iron overloaded, bile duct cannulated rat model
Type: in vivo
Details: 300 μmol/kg, p.o., 24 hour iron excretion, 2:1 ligand-iron complex
measurement.label: Efficiency (%) (iron clearing efficiency)
# unit: % | format: bare number

[
  {
    "compound": "COCCOCCOCCOc1ccc(C2=N[C@@](C)(C(=O)O)CS2)c(O)c1 [(S)-4′-(HO)-DADFT-PE]",
    "output.unit": "%",
    "recorded.measurement": 6.6
  },
  {
    "compound": "C[C@]1(C(=O)O)CSC(c2ccc(O)cc2O)=N1 [(S)-4′-(HO)-DADFT]",
    "output.unit": "%",
    "recorded.measurement": 1.0
  }
]

QUERY: Efficiency (%) (iron clearing efficiency) lookup needed for COCCOCCOCCOc1ccc(C2=N[C@@](C)(C(=O)OC(C)C)CS2)c(O)c1 [(S)-4′-(HO)-DADFT-PE iPrE] , thanks.
RESULT: 9.2

QUERY: Please give the measured Efficiency (%) (iron clearing efficiency) for this compound: COc1ccc(C2=N[C@@](C)(C(=O)O)CS2)c(O)c1 [(S)-4′-(CH3O)-DADFT]
RESULT: 6.6

----------
Test: Tissue and plasma concentrations upon subcutaneous administration to rats
Assay type: in vivo
Details: rat, sc 300 μmol/kg, plasma, 2 h; read-out: Plasma concentration of administered compound
measurement.label: concentration at 2 h (µM)
# number only, unit µM dropped from output

[
  {
    "molecule": "COCCOCCOCCOc1ccc(C2=N[C@@](C)(C(=O)O)CS2)c(O)c1 [(S)-4′-(HO)-DADFT-PE]",
    "recorded.measurement": 16.2
  }
]

# context switch: different molecule, same concentration at 2 h
QUERY: Would you mind telling me what concentration at 2 h value was observed for C[C@]1(C(=O)O)CSC(c2ccc(O)cc2O)=N1 [(S)-4′-(HO)-DADFT] ?
RESULT: 13.1

----------
Assay: Tissue and plasma concentrations upon subcutaneous administration to rats
Type: in vivo
Conditions: rat, sc 300 μmol/kg, plasma, 4 h; read-out: Plasma concentration of administered compound
measurement.label: concentration at 4 h (µM)
Your answer is read as µM, so omit the unit and give the number.

QUERY: Bench note: what concentration at 4 h did COCCOCCOCCOc1ccc(C2=N[C@@](C)(C(=O)O)CS2)c(O)c1 [(S)-4′-(HO)-DADFT-PE] show?
RESULT: 5.3
